Record form. Attribute: Neutralization Long IC50. Fill in for each entry.
- target.desc: protein F of hRSV strain Long, on virus (inactivated hRSV Long, Hytest #8RSV79; RSV Long LM-2, ATCC VR-26) (human respiratory syncytial virus, …, UniProt P12568 26-574)
- assay.protocol: cell-based or functional assay
Report as a plain number; the unit nM is understood.

For the binder Nanobody 20B2 (VHH, also called PMP20B2; PR5V20B2) VHH: EVQLVESGGGLVQAGGSLRLSCEASGRTFSSYDMGWFRQAPGKEREFVAAVTRWSGARGVYADSVKGRFTISRDNAENTVHLQMNSLKPEDTAVYTCAADSTNRNSGAVYYTWAYDYWGQGTQVTVSS , what Neutralization Long IC50 is on record?
1760

For the binder Nanobody 7B2 (VHH, also called PMP7B2; PRSV7B2) VHH: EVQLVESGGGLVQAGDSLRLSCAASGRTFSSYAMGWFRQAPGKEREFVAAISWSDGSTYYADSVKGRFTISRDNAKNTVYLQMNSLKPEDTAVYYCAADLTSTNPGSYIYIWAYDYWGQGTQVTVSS , what Neutralization Long IC50 is on record?
108

For the binder Nanobody NC41 (VHH) VHH: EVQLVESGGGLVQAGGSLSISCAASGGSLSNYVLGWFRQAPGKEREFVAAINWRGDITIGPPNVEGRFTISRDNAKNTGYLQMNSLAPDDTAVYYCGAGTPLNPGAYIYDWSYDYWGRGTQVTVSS , what Neutralization Long IC50 is on record?
221

For the binder Nanobody 19C4 (VHH, also called PMP19C4; PRSV19C4) VHH: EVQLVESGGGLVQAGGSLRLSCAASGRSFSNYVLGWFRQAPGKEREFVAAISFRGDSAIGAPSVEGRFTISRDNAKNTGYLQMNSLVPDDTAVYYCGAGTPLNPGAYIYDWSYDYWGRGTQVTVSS , what Neutralization Long IC50 is on record?
332

For the binder Nanobody 1A6 (VHH, also called PMP1A6; PRSV1A6) VHH: EVQLVESGGGLVQAGGSLRLSCAASGRTFSSYAMGWFRQAPGKEREFVAAIWWSGGSTYYADSVKGRFTMSRDNAKNTVYLEMNNLKPEDTAVYYCAADTDSSNSGSYLYTWAYDYWGQGTQVTVSS , what Neutralization Long IC50 is on record?
4500

For the binder Nanobody 20C1 (VHH, also called PMP20C1; PRSV20C1) VHH: EVQLVESGGGLVQAGGSLRLSCAASGRTFSSFAMGWFRQAPGKEREFVAAISWSGGSTYYADSVKGRFTISGDNAKNTMYLQMNSLKPEDTAVYYCAADSEILNSGAYYYPWAYVYWGQGTQVTVSS , what Neutralization Long IC50 is on record?
5290

For the binder Nanobody 1G3 (VHH, also called PMP1G3; PRSV1G3) VHH: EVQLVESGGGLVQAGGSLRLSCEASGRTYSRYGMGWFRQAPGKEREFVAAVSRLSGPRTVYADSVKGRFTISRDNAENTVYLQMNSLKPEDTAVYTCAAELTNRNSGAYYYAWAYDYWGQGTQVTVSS , what Neutralization Long IC50 is on record?
413

For the binder Nanobody 1G8 (VHH, also called PMP1G8; PRSV1G8) VHH: EVQLVESGGGSVQAGGSLRLSCAASGGSFNRFGMGWFRRAPGKERDFVAAINLSGDTTYYVDSVQGRFTISRDNANNIMYLQMNLLKPEDTADYYCAADPDPITAWKQSGAGMDYWGKGTQVTVSS , what Neutralization Long IC50 is on record?
10000
